- System: UACC-62 melanoma
- test-summary: NCI tumour cell line growth inhibition, 48 h
Outcome: yes (1) for TGI of at least 30 µM; no (0) for anything lower.

compound	assigned-category
OCCN(CCO)c1ccc2c(C(F)(F)F)cc(C(F)(F)F)nc2n1	yes (1)
CN1CCN(c2ccc3c4c(cccc24)C(=O)N(CCN2CCN(CCCN4CCN(CCN5C(=O)c6cccc7c(N8CCN(C)CC8)ccc(c67)C5=O)CC4)CC2)C3=O)CC1	no (0)
O=C(Nc1ccc(Br)cc1)Nc1n[nH]c2ccccc12	yes (1)
CC(=O)[O-].CC(=O)[O-].O=C(N/N=C/c1cc(Cl)cc(Cl)c1[OH2+])c1ccncc1.[Co+2]	yes (1)
O=C(Oc1ccccc1)c1cc2cc(CCl)ccc2oc1=O	no (0)
CC1(C)N=C(N)N=C(N)N1c1ccc(F)c(C(F)(F)F)c1	yes (1)
Cc1cc(NS(=O)(=O)c2ccc(NC(=O)c3cccc4c(N)c5ccccc5nc34)cc2)no1	yes (1)
O=C1C2C=CC1C1C(=O)OC(=O)C21 (stereo unspecified)	yes (1)
C/C(=N\Nc1ccc([N+](=O)[O-])cc1[N+](=O)[O-])c1ccc2ccccc2n1	yes (1)
COC(=O)NCCc1[nH]nc2c1C(=O)C=C(Nc1ccccc1)C2=O	yes (1)
CC(=O)c1ccc(Oc2ccc(/C(C)=N\N=C(N)N)cc2)cc1	no (0)
